- study-target: T1, human IL-8 (human, UniProt P10145 23-99, limits assumed)
- T1 construct: also called hIL-8; hIL8
- T1 sequence (P10145 23-99 limits assumed): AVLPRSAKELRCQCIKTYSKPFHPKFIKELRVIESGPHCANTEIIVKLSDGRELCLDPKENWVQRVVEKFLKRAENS
- experimental-details: SPR Biacore T200, Protein A/G capture, pH 5.8, 37C;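 note: antibodies captured by Protein A/G amine-coupled onto a CM4 sensor chip, with kinetic parameters derived using Biacore T200 Evaluation Software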
Give Kd for every item shown.
Please reply with the bare figure in nM and do not write the unit itself.

Data request, read-out Kd, for H1050/L0395 (antibody, human IgG1, kappa, name in Kabat numbering, V domains shown) VH: QVQLVESGGGLVQPGGSLRLSCAASGFTFSEYYLSWVRQAPGKGLEWVGLIRNKDNYHTPEYSASVKGRFTISRDDSKNSLYLTMSDLKTEDTAVYYCARENHRYDVELAYWGQGTLVTVSS VL: DIQMTQSPSSLSASVGDRVTITCRASEIIYSYLAWYQQKPGKAPKLLIYKAKTHADGVPSRFSGSGSGTDFTFTISSLQPEDIATYYCKHHFGFPRTFGQGTKVEIKR
77

Data request, read-out Kd, for H1041/L0442 (antibody, human IgG1, kappa, name in Kabat numbering, V domains shown, L442 = L395 + S31E) VH: QVQLVESGGGLVQPGGSLRLSCAASGFTFSEYYLSWVRQAPGKGLEWVGLIRNKDNGYHPEYSASVKGRFTISRDDSKNSLYLTMSDLKTEDTAVYYCARENHRYDVELAYWGQGTLVTVSS VL: DIQMTQSPSSLSASVGDRVTITCRASEIIYEYLAWYQQKPGKAPKLLIYKAKTHADGVPSRFSGSGSGTDFTFTISSLQPEDIATYYCKHHFGFPRTFGQGTKVEIKR
61

Recorded values, source patent US20190169286A1.
